Would you kindly list pest or weed control at 250 g/ha for each of these compounds?
- Tested on: Digitaria sanguinalis (DIGSA)
- Experimental Details: Example B pre-emergence herbicidal greenhouse test
- Type: in vivo
- Experimental Parameters: 480 h, evaluated after 20 days, 100=total damage to plant, 0=no damage
Give the quantity in %, number only.

Incoming: Param readout= pest or weed control at 250 g/ha; system= Digitaria sanguinalis (DIGSA); entry= CCc1ccc(-c2ccc(Cl)c(Cl)c2)cc1C1=C(O)[C@H]2CC[C@H](C2)C1=O (single isomer, unassigned) ; returns value.
Outgoing: 70

Incoming: Given the entry CCc1ccc(-c2ccc(Cl)cc2)cc1C1=C(O)[C@H]2C=C[C@H](CC2)C1=O (single isomer, unassigned) , what pest or weed control at 250 g/ha was observed with Digitaria sanguinalis (DIGSA)?
Outgoing: 30

Incoming: Param readout= pest or weed control at 250 g/ha; system= Digitaria sanguinalis (DIGSA); entry= Cc1cc(-c2ccc(C)c(C3=C(O)[C@H]4CC[C@H](C4)C3=O)c2)ccc1Cl (single isomer, unassigned) ; returns value.
Outgoing: 70

---

- Tested on: Digitaria sanguinalis (DIGSA)
- Experimental Details: Example B pre-emergence herbicidal greenhouse test
- Assay type: in vivo
- Experimental Parameters: 480 h, evaluated after 20 days, 100=total damage to plant, 0=no damage
So basically: pest or weed control at 250 g/ha at 90% or higher? That is yes (1). Lower than 90%? That is no (0).

Incoming: Check if pest or weed control at 250 g/ha >= 90% (inclusive). Item: CCc1ccc(-c2ccc(C)cc2)cc1C1=C(O)[C@H]2CC[C@H](C2)C1=O [Compound T5]
Outgoing: no (0)

Incoming: Determine whether this molecule has pest or weed control at 250 g/ha no lower than 90%: CCc1cc(-c2ccc(Cl)cc2)ccc1C1=C(OC(C)=O)[C@@H]2CC[C@@H](C2)C1=O [Compound P3]
Outgoing: no (0)

Incoming: Is it the case that Cc1cc(-c2ccccc2)cc(C)c1C1=C(OC(=O)C(C)(C)C)C2CCC(C2)C1=O (stereo not drawn) [Compound P2] has pest or weed control at 250 g/ha reaching or exceeding 90%?
Outgoing: no (0)

Incoming: Say whether CCc1ccc(-c2ccc(Cl)c(F)c2)cc1C1=C(O)[C@H]2CC[C@H](C2)C1=O (single isomer, unassigned) [Compound T36] shows pest or weed control at 250 g/ha of 90% or more.
Outgoing: yes (1)

Incoming: Test whether the molecule CCc1cc(-c2ccc(Cl)cc2)cc(CC)c1C1=C(O)[C@H]2CC[C@H](C2)C1=O [Compound T62] records pest or weed control at 250 g/ha of 90% or higher.
Outgoing: yes (1)

Incoming: Tell me whether pest or weed control at 250 g/ha is at least 90% here: CCc1ccc(-c2ccc(Cl)c(C)c2)cc1C1=C(O)[C@H]2CC[C@H](C2)C1=O [Compound T32]
Outgoing: yes (1)

Incoming: Quick check, pest or weed control at 250 g/ha >= 90%? Cc1ccc(-c2ccc(Cl)c(Cl)c2)cc1C1=C(O)[C@H]2CC[C@H](C2)C1=O (single isomer, unassigned) [Compound T10]
Outgoing: no (0)

Incoming: Evaluate Cc1ccc(-c2ccc(Cl)cc2Cl)cc1C1=C(O)[C@H]2CC[C@H](C2)C1=O (single isomer, unassigned) [Compound T12] : pest or weed control at 250 g/ha at minimum 90%?
Outgoing: yes (1)

Incoming: Identify whether the reported pest or weed control at 250 g/ha of the following molecule is 90% or greater: CCc1ccc(-c2ccc(Cl)cc2)cc1C1=C(O)[C@H]2CC[C@H](C2)C1=O [Compound T4]
Outgoing: yes (1)

Incoming: Does pest or weed control at 250 g/ha meet or surpass 90% for Cc1cc(-c2ccc(Cl)cc2)ccc1C1=C(O)[C@H]2CC[C@H](C2)C1=O [Compound T61] ?
Outgoing: yes (1)

Incoming: Hi team, for CC(=O)OC1=C(c2c(C)cc(-c3ccccc3)cc2C)C(=O)[C@@H]2CC[C@H]1C2 [Compound P1] , is the recorded pest or weed control at 250 g/ha at or above 90%?
Outgoing: no (0)

Incoming: Does CCc1ccc(-c2ccc(F)cc2)cc1C1=C(O)[C@H]2CC[C@H](C2)C1=O [Compound T3] have a reported pest or weed control at 250 g/ha of at least 90%?
Outgoing: no (0)
